src = paper PMC9482650

testedOn: PICK1, Q9NRD5
Sequence (Q9NRD5 17-115): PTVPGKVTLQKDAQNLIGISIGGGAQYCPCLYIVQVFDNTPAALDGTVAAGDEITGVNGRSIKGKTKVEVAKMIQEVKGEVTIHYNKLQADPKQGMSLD
testDescription: holdup assay
Set-up: key: below the threshold = too weak to quantify, mostly under pKd 3.1 to 4
conditionSet: plain residues with an end cap or a label only (N-terminal biotin on a linker: ado-ado)
measuredProperty: pKd

>>> readoutvalue("KLQNPNQSVV [TYRP1, P17643]")
4.19
>>> readoutvalue("NSTHNLKDYV [CLDN20, P56880]")
"below the threshold"
>>> readoutvalue("DAAHHDESNC [FMNL3, Q8IVF7]")
"below the threshold"
>>> readoutvalue("FLVTEFNVML [DFNB31, Q9P202]")
"below the threshold"
>>> readoutvalue("RSPVATATSC [DUSP5, Q16690]")
3.97
>>> readoutvalue("THHRKIHTRV [ZNF599, Q96NL3]")
"below the threshold"

Give pKd for SKQFDKNAYV [CLDN10, P78369]
below the threshold

Provide one value: measured pKd of TNSKQGETTV [FZD1, Q9UP38]
4.2

Supply measured pKd of IKLETKKTKL [SLC15A2, Q16348] in your reply.
below the threshold

Input VCMGDHWFDV [PRKN, O60260] , output reported pKd.
below the threshold

Tell me measured pKd for QLGSPTADLA [SIPA1, Q96FS4] please.
below the threshold

Quote pKd reported for FVFESRKEIL [TBPL1, P62380] please.
below the threshold

Read off the recorded pKd for LVEEEEPMNL [HDAC7, Q8WUI4]
4.11

Provide only the value of recorded pKd for NKSEPFLTWL [WWTR1, Q9GZV5]
below the threshold

Hello, please tell me recorded pKd for this one: WAKEKQHTRL [SLC17A1, Q14916]
below the threshold

Fill in reported pKd for this entry: QRYPGNQTTC [CCL24, O00175]
below the threshold

Give recorded pKd. EAVTVESTSL [SLC22A11, Q9NSA0]
below the threshold

Return the recorded pKd value; entry: SGDGKTSVWI [GJC1, P36383]
below the threshold

Identify pKd associated with the binder DSEEELPTRL [GRK6, P43250]
4.25

Supply pKd value. Item: PAALPESTHM [SLC9A3, P48764]
4.11

Report pKd, nothing else, for this binder: PDSYHRRDFW [U2AF2, P26368]
4.17

Consider the binder KPDKQEEFYA [SDC3, O75056] and give its recorded pKd.
below the threshold
